- EXPERIMENTAL PROTOCOL: self-splicing fitness, log relative to wild type (ln ratio); higher = more splicing; Tetrahymena group I intron in knt gene, E. coli kanamycin selection, DiMSum; sequences stand for … in CUCUCU…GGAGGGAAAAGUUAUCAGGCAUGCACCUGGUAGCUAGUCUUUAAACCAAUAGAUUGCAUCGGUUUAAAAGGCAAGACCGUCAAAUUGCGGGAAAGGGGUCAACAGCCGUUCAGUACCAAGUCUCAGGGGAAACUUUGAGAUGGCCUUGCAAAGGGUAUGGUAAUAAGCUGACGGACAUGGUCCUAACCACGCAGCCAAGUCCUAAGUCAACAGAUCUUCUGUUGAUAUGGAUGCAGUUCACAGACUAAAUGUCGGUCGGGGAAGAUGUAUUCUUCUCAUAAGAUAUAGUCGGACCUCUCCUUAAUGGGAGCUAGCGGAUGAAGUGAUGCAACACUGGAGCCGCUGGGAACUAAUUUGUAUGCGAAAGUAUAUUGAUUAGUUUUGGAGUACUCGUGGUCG;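 further: selection with 25 µg/mL kanamycin versus none on LB agar overnight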
- MEASUREMENT SETUP: 30 °C
MEASURED ENDPOINT: self-splicing fitness (ln)
// print number alone

Sample GGUUAGCAAUAUUACGCUUU — what was its self-splicing fitness (ln)? -2.01

Sample UCGAAGCAAUAUUACGGGCC — what was its self-splicing fitness (ln)? -2.98

Sample GUGUAGCAAUAUUACGAUUU — what was its self-splicing fitness (ln)? -1.98
